All figures here come from patent US8354388B2.

system: intracellular cAMP in hCASMC; assay: FRET imaging of cAMP with Epac2-camps in hCASMC; assay type: cell-based; details: Homo sapiens, MRP4 siRNA transfected hCASMC; read-out: EC50, dose providing 50% of maximal cAMP formation
measured quantity: pEC50
# pEC50: negative log10 of molar concentration; output just the value

Memo: "C=C[C@@]1(C)CC(=O)[C@]2(O)[C@@]3(C)[C@@H](O)CCC(C)(C)[C@@H]3[C@H](O)[C@H](OC(C)=O)[C@@]2(C)O1" , reported pEC50: 5.52
